This collection of values is drawn from ChEMBL document CHEMBL3085723.

# TARGET_OR_TEST_SYSTEM: Neuronal acetylcholine receptor; alpha2/beta4 (Rattus norvegicus, UniProt P12389+P12392)
# Sequence (P12389 whole entry): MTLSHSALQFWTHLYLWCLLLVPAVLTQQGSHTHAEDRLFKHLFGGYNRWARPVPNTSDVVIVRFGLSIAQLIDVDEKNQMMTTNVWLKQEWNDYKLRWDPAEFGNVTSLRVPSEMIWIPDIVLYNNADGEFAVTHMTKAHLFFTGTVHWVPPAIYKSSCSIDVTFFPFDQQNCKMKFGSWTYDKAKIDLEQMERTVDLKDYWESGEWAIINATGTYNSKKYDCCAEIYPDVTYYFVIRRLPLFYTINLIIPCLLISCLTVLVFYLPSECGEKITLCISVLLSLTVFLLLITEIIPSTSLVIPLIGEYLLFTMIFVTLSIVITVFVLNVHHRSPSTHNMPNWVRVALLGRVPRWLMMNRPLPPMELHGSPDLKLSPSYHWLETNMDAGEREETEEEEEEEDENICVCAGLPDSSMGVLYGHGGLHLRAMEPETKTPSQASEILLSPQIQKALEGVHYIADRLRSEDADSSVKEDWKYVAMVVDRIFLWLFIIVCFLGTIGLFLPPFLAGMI
# Sequence (P12392 whole entry): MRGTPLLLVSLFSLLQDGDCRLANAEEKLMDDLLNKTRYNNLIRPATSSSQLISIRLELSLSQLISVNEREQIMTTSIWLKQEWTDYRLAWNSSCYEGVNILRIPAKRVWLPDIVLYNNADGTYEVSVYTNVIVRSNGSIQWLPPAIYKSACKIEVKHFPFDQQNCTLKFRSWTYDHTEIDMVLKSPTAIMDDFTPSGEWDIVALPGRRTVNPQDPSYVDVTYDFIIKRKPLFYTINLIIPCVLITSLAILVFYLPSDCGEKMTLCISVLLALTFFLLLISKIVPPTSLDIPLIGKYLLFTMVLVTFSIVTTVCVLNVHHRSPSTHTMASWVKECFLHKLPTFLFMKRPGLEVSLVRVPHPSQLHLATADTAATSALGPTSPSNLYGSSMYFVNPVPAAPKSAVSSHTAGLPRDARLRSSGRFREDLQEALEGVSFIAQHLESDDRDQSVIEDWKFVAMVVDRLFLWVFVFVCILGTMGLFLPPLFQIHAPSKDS
# MEASUREMENT_PROTOCOL: Displacement of [3H]epibatidine from rat alpha2beta4 nAChR expressed in HEK293 cells after 4 hrs
PROPERTY_LABEL: pKi
One number for each entry, as −log10 of the molar value.

SMILES_TEXT: Cc1cccc(C#Cc2cncc(OC[C@@H]3CCN3)c2)c1
TARGET_OR_TEST_SYSTEM: Neuronal acetylcholine receptor; alpha2/beta4 (Rattus norvegicus, UniProt P12389+P12392)
pKi: 7.34

SMILES_TEXT: FC(F)(F)c1cccc(C#Cc2cncc(OC[C@@H]3CCN3)c2)c1
TARGET_OR_TEST_SYSTEM: Neuronal acetylcholine receptor; alpha2/beta4 (Rattus norvegicus, UniProt P12389+P12392)
pKi: 7.27

SMILES_TEXT: C(#Cc1cncc(OC[C@H]2CCN2)c1)c1ccccc1
TARGET_OR_TEST_SYSTEM: Neuronal acetylcholine receptor; alpha2/beta4 (Rattus norvegicus, UniProt P12389+P12392)
pKi: 7.34

SMILES_TEXT: c1ccc(-c2cncc(OC[C@@H]3CCN3)c2)cc1
TARGET_OR_TEST_SYSTEM: Neuronal acetylcholine receptor; alpha2/beta4 (Rattus norvegicus, UniProt P12389+P12392)
pKi: 7.44

SMILES_TEXT: Fc1cccc(C#Cc2cncc(OC[C@@H]3CCN3)c2)c1
TARGET_OR_TEST_SYSTEM: Neuronal acetylcholine receptor; alpha2/beta4 (Rattus norvegicus, UniProt P12389+P12392)
pKi: 7.51

Hey, can you go through the list below and give me pKi for every item?
1. Cc1cc(F)cc(C#Cc2cncc(OC[C@@H]3CCN3)c2)c1
2. CN1CC[C@H]1COc1cncc(C#Cc2ccccc2)c1
3. C(#Cc1cncc(OC[C@@H]2CCN2)c1)c1ccccc1
4. c1cnc2cc3c(cc2n1)[C@@H]1CNC[C@H]3C1
5. COc1cc(F)cc(C#Cc2cncc(OC[C@@H]3CCN3)c2)c1

7.42
5.39
7.24
7.15
7.28

====

# TARGET_OR_TEST_SYSTEM: Neuronal acetylcholine receptor; alpha3/beta2 (Rattus norvegicus, UniProt P04757+P12390)
# Sequence (P04757 whole entry): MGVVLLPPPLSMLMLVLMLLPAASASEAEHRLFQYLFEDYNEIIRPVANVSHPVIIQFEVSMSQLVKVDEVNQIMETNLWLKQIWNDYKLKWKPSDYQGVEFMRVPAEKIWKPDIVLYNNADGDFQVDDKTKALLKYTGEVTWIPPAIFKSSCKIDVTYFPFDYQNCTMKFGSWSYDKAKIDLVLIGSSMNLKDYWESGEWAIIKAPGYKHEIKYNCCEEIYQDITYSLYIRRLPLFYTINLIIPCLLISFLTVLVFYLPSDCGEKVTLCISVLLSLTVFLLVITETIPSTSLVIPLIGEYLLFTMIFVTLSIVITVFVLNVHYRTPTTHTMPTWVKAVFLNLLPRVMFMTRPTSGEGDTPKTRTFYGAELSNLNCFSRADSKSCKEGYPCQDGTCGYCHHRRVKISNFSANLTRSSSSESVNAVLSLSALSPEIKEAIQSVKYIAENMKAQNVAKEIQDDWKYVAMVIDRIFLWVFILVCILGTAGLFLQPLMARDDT
# Sequence (P12390 whole entry): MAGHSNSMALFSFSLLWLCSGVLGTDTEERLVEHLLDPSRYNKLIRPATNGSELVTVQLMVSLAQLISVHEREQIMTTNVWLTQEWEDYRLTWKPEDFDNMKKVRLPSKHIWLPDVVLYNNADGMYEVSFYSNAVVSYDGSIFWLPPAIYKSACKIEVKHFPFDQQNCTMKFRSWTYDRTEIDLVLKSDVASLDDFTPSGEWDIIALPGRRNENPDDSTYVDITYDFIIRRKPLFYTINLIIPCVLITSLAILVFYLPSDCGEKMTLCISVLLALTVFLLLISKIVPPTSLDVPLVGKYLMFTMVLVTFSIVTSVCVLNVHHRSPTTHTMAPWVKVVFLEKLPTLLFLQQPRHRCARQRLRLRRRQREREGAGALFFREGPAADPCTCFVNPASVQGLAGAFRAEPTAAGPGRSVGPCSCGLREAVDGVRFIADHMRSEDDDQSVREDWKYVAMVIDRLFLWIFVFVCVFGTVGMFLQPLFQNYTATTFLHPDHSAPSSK
# MEASUREMENT_PROTOCOL: Displacement of [3H]epibatidine from rat alpha3beta2 nAChR expressed in HEK293 cells after 4 hrs
Mark each entry fulfilled if its Ki sits below 0.9 nM, and not fulfilled for all others.

SMILES_TEXT: Clc1cccc(C#Cc2cncc(OC[C@@H]3CCN3)c2)c1
CLASSIFICATION: not fulfilled

SMILES_TEXT: Fc1ccc(C#Cc2cncc(OC[C@@H]3CCN3)c2)cc1
CLASSIFICATION: fulfilled

SMILES_TEXT: C(#Cc1cncc(OC[C@@H]2CCN2)c1)c1ccccc1
CLASSIFICATION: fulfilled

SMILES_TEXT: Fc1cc(F)cc(C#Cc2cncc(OC[C@@H]3CCN3)c2)c1
CLASSIFICATION: fulfilled

Now let's try a different one.
Is Ki of `CN1CC[C@H]1COc1cncc(C#Cc2ccccc2)c1` strictly below 0.9 nM? not fulfilled

====

Give measured fraction unbound at 4 h, 5 µM for each item. Keep answers brief.
# MEASUREMENT_PROTOCOL: Fraction unbound in rat brain homogenate at 5 uM after 4 hrs equilibrium dialysis method
# Type: ADME, tissue-based

Answered examples (3):
SMILES_TEXT: c1cnc2cc3c(cc2n1)[C@@H]1CNC[C@H]3C1
OBSERVED_VALUE: 0.897

SMILES_TEXT: OCCCCC#Cc1cncc(OC[C@@H]2CCN2)c1
OBSERVED_VALUE: 0.598

SMILES_TEXT: O=C(CCCN1CCC(O)(c2ccc(Cl)cc2)CC1)c1ccc(F)cc1
OBSERVED_VALUE: 0.016

Attention now shifts to the item below.
Requested read-out: fraction unbound at 4 h, 5 µM. Entry: `C(#Cc1cncc(OC[C@@H]2CCN2)c1)c1ccccc1` 0.0121

====

# MEASUREMENT_PROTOCOL: Displacement of [3H]epibatidine from nAChR in rat forebrain
# Format: tissue-based
PROPERTY_LABEL: Ki
The number alone won't do; follow it with the unit.

Answered examples (5):
SMILES_TEXT: c1cnc2cc3c(cc2n1)[C@@H]1CNC[C@H]3C1
OBSERVED_VALUE: 0.71 nM
//
SMILES_TEXT: CN1CC[C@H]1COc1cncc(C#Cc2ccccc2)c1
OBSERVED_VALUE: 30 nM
//
SMILES_TEXT: Clc1cccc(C#Cc2cncc(OC[C@@H]3CCN3)c2)c1
OBSERVED_VALUE: 1.7 nM
//
SMILES_TEXT: Cc1cc(F)cc(C#Cc2cncc(OC[C@@H]3CCN3)c2)c1
OBSERVED_VALUE: 1.4 nM
//
SMILES_TEXT: c1ccc(-c2cncc(OC[C@@H]3CCN3)c2)cc1
OBSERVED_VALUE: 1.1 nM

Attention now shifts to the item below.
Requested read-out: Ki. Entry: `Fc1cc(F)cc(C#Cc2cncc(OC[C@@H]3CCN3)c2)c1` 0.73 nM

====

Give measured Ki for each item. Keep answers brief.
# TARGET_OR_TEST_SYSTEM: Neuronal acetylcholine receptor; alpha2/beta2 (Rattus norvegicus, UniProt P12389+P12390)
# Sequence (P12389 whole entry, one chain of several): as the sequence (P12389 whole entry) above
# MEASUREMENT_PROTOCOL: Displacement of [3H]epibatidine from rat alpha2beta2 nAChR expressed in HEK293 cells after 4 hrs
Numbers only, in nM.

Answered examples (5):
SMILES_TEXT: Cc1cccc(C#Cc2cncc(OC[C@@H]3CCN3)c2)c1
TARGET_OR_TEST_SYSTEM: Neuronal acetylcholine receptor; alpha2/beta2 (Rattus norvegicus, UniProt P12389+P12390)
Ki (nM): 0.053
--
SMILES_TEXT: Fc1cc(F)cc(C#Cc2cncc(OC[C@@H]3CCN3)c2)c1
TARGET_OR_TEST_SYSTEM: Neuronal acetylcholine receptor; alpha2/beta2 (Rattus norvegicus, UniProt P12389+P12390)
Ki (nM): 0.063
--
SMILES_TEXT: Fc1cccc(C#Cc2cncc(OC[C@@H]3CCN3)c2)c1
TARGET_OR_TEST_SYSTEM: Neuronal acetylcholine receptor; alpha2/beta2 (Rattus norvegicus, UniProt P12389+P12390)
Ki (nM): 0.029
--
SMILES_TEXT: c1cnc2cc3c(cc2n1)[C@@H]1CNC[C@H]3C1
TARGET_OR_TEST_SYSTEM: Neuronal acetylcholine receptor; alpha2/beta2 (Rattus norvegicus, UniProt P12389+P12390)
Ki (nM): 0.22
--
SMILES_TEXT: C(#Cc1cncc(OC[C@H]2CCN2)c1)c1ccccc1
TARGET_OR_TEST_SYSTEM: Neuronal acetylcholine receptor; alpha2/beta2 (Rattus norvegicus, UniProt P12389+P12390)
Ki (nM): 0.19

Hey, can you go through the list below and give me Ki for every item?
1. COc1cc(F)cc(C#Cc2cncc(OC[C@@H]3CCN3)c2)c1
2. FC(F)(F)c1cccc(C#Cc2cncc(OC[C@@H]3CCN3)c2)c1
3. Fc1ccccc1C#Cc1cncc(OC[C@@H]2CCN2)c1
4. c1ccc(-c2cncc(OC[C@@H]3CCN3)c2)cc1
5. C(#Cc1cncc(OC[C@@H]2CCN2)c1)c1ccccc1

[0.091, 0.28, 0.081, 0.22, 0.11]

Requested read-out: Ki. Entry: `Clc1cccc(C#Cc2cncc(OC[C@@H]3CCN3)c2)c1` 0.19

====

# TARGET_OR_TEST_SYSTEM: Neuronal acetylcholine receptor subunit alpha-7 (Rattus norvegicus, UniProt Q05941)
# Sequence (Q05941 whole entry): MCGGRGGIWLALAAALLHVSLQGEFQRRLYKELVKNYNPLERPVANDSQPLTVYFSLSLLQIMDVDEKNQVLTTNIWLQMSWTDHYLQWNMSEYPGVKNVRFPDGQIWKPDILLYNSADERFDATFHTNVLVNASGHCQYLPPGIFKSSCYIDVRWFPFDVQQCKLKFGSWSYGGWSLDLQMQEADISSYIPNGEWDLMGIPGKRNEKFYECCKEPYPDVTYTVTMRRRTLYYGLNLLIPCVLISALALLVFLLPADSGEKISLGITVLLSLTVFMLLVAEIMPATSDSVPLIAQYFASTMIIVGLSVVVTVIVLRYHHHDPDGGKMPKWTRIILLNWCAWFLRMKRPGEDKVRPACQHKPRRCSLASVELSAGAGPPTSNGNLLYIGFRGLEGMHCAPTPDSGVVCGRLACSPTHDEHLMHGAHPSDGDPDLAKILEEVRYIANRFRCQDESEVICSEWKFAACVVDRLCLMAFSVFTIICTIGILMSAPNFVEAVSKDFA
# MEASUREMENT_PROTOCOL: Displacement of [3H]epibatidine from rat alpha7 nAChR expressed in HEK293 cells after 4 hrs
PROPERTY_LABEL: Ki

COMPOUND: C(#Cc1cncc(OCC2CCC2)c1)c1ccccc1
Ki: > 250 µM
--
COMPOUND: CCCNCCOc1cncc(C#Cc2ccccc2)c1
Ki: > 25 µM

Hey, can you go through the list below and give me Ki for every item?
1. c1ccc(-c2cncc(OC[C@@H]3CCN3)c2)cc1
2. c1cnc2cc3c(cc2n1)[C@@H]1CNC[C@H]3C1 [VARENICLINE]

1. 11 µM
2. 0.062 µM

====

# TARGET_OR_TEST_SYSTEM: Neuronal acetylcholine receptor; alpha4/beta2 (Homo sapiens, UniProt P17787+P43681)
# Sequence (P17787 whole entry): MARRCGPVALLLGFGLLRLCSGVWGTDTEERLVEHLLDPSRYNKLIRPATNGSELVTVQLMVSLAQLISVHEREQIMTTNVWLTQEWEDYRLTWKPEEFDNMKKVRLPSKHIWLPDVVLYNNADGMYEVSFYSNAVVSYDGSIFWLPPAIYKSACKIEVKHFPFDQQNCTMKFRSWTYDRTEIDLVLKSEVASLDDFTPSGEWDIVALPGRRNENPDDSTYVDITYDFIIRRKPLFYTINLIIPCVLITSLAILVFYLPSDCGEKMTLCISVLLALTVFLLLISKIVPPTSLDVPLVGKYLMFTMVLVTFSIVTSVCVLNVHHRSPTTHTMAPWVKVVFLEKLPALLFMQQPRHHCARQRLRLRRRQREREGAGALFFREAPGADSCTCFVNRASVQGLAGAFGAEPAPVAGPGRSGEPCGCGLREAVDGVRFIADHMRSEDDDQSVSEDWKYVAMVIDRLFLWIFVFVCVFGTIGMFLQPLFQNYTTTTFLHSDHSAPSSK
# Sequence (P43681 whole entry): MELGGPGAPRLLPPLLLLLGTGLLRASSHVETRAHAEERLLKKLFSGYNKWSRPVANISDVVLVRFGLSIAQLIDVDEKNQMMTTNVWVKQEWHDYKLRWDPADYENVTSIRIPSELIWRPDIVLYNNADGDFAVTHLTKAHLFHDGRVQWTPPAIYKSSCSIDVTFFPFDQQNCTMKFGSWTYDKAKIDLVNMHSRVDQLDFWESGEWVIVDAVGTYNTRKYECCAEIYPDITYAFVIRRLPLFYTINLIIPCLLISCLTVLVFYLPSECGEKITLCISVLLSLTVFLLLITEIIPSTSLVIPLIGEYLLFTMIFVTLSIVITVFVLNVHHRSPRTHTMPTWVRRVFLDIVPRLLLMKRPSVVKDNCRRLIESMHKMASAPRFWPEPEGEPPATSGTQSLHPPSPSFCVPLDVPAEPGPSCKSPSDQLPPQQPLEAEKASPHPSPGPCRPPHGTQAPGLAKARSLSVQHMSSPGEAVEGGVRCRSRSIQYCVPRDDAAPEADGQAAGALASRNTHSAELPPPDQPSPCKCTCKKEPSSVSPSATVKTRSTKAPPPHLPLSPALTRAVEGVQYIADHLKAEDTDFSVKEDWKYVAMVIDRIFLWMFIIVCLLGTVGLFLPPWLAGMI
# MEASUREMENT_PROTOCOL: Displacement of [3H]epibatidine from human alpha4beta2 nAChR after 4 hrs by cell-based assay
PROPERTY_LABEL: pKi
One number for each entry, as −log10 of the molar value.

Answered examples (6):
SMILES_TEXT: CN1CC[C@H]1COc1cncc(C#Cc2ccccc2)c1
pKi: 8.92

SMILES_TEXT: c1ccc(-c2cncc(OC[C@@H]3CCN3)c2)cc1
pKi: 9.85

SMILES_TEXT: Cc1cccc(C#Cc2cncc(OC[C@@H]3CCN3)c2)c1
pKi: 10.34

SMILES_TEXT: C(#Cc1cncc(OC[C@@H]2CCN2)c1)c1ccccc1
pKi: 10.31

SMILES_TEXT: COc1cc(F)cc(C#Cc2cncc(OC[C@@H]3CCN3)c2)c1
pKi: 10.12

SMILES_TEXT: CN(C)c1cc(F)cc(C#Cc2cncc(OC[C@@H]3CCN3)c2)c1
pKi: 10.51

Hey, can you go through the list below and give me pKi for every item?
1. OCCCCC#Cc1cncc(OC[C@@H]2CCN2)c1
2. Fc1ccc(C#Cc2cncc(OC[C@@H]3CCN3)c2)cc1
3. Fc1ccccc1C#Cc1cncc(OC[C@@H]2CCN2)c1
4. Fc1cccc(C#Cc2cncc(OC[C@@H]3CCN3)c2)c1
5. C(#Cc1cncc(OC[C@H]2CCN2)c1)c1ccccc1
6. Fc1cc(F)cc(C#Cc2cncc(OC[C@@H]3CCN3)c2)c1
7. Clc1cccc(C#Cc2cncc(OC[C@@H]3CCN3)c2)c1
8. FC(F)(F)c1cccc(C#Cc2cncc(OC[C@@H]3CCN3)c2)c1

10.21
10.08
10.14
10.49
9.96
10.30
10.03
9.59

Requested read-out: pKi. Entry: `Cc1cc(F)cc(C#Cc2cncc(OC[C@@H]3CCN3)c2)c1` 10.37
